Each recorded value in this set is attributed to patent US20240207421A1.

test system: excised human nerve tissue (or nerve extracts); experiment: Phage display library screening (Example 2), NEB tissue-binding peptides: nerve tissue and nerve extracts versus muscle; conditions: unique sequence count, tissue target: nerve extract, peptides not binding muscle extracts
Lab note: anything with Count Nerve Extract below 20 is marked Y; values at 20 or higher are marked N.

sequence data	class label
HGIVFSKRPFSN	N
TLNARDQLSING (nerve-binding peptide)	Y
EESNAKLELLSR	N
FDPLSRNVPHKT	N
EFARFRVFGVAE	N
SLGSSFVQGGEL	Y
TDNGSFLGKLTS	Y
NAVHRPDLNLLA	N
YSANSNPKKSLM	Y
IPGQTPRMPHSK	N
EIIVMSGSNVTN	Y
GLWDGKGRIVEV	Y
GWQMFPPMQNTR	N
NRIGHGTATGTL	N
VERLNWPKRMQS	N
GLLREPDELMFL	N
GMRTGDDSPKYP	N
SDHTFKRVMFRW	Y
GWNEATNSARHT	N
WSGGMEDNSNRL	Y
MLRHVDLTEPNA	Y
NGMNWLQVHQLS	Y
VNYQTPWNKHWY	N
VRLPMLASMGHQ	N
QNIVENFIDNER	N
DVMQMFHQVHFY	Y
